Examples of compounds with documented TIMS collisional cross section follow.
experiment: TIMS collisional cross section (CCS, N2) of the lipid ion; higher = larger ion cross section; details: sample type: HeLa; ionization mode: positive; one isomer drawn
The figure you give is taken to be in Å²; do not add the unit.

Would you mind telling me what TIMS collisional cross section value was observed for CCCCCCCCCCCCCCCC(=O)OC[C@H](COP(=O)([O-])OCC[N+](C)(C)C)OC(=O)CCCCCCCCCCCCCCC [PC 16:0_16:0] (ion (formula + adduct): [C40H80NO8P+H] 1+) ?
286.1

Would you mind telling me what TIMS collisional cross section value was observed for CC/C=C\C/C=C\C/C=C\C/C=C\C/C=C\CCCC(=O)O[C@H](COC(=O)CCCCCCC/C=C\CCCCCC)COP(=O)(O)OCCN [PE 16:1_20:5@] (ion (formula + adduct): [C41H70NO8P+H] 1+) ?
269.8

Would you mind telling me what TIMS collisional cross section value was observed for CCCCCCCCCCCCCCCCOC[C@@H](O)COP(=O)([O-])OCC[N+](C)(C)C [LPC O- 16:0] (ion (formula + adduct): [C24H52NO6P+H] 1+) ?
230.5

Would you mind telling me what TIMS collisional cross section value was observed for CCCCCCCCCCCCCCCC(=O)OC[C@@H](COC(=O)CCCCCCCCCCC)OC(=O)CCCCCCCCCCCCC [TG 12:0_14:0_16:0] (ion (formula + adduct): [C45H86O6+NH4] 1+) ?
294.93

Would you mind telling me what TIMS collisional cross section value was observed for CCCCC/C=C\C/C=C\CCCCCCCC(=O)OC[C@@H](COC(=O)CCCCCCC/C=C\CCCCC)OC(=O)CCCCCCC/C=C\CCCCCC [TG 15:1_16:1_18:2] (ion (formula + adduct): [C52H92O6+NH4] 1+) ?
308.4
